# System Under Test: tetanus neurotoxin (TeNT), authentic tetanus holotoxin (Clostridium tetani, UniProt P04958 2-1315)
# Sequence (P04958 2-457 limits assumed, chain 1 of 2): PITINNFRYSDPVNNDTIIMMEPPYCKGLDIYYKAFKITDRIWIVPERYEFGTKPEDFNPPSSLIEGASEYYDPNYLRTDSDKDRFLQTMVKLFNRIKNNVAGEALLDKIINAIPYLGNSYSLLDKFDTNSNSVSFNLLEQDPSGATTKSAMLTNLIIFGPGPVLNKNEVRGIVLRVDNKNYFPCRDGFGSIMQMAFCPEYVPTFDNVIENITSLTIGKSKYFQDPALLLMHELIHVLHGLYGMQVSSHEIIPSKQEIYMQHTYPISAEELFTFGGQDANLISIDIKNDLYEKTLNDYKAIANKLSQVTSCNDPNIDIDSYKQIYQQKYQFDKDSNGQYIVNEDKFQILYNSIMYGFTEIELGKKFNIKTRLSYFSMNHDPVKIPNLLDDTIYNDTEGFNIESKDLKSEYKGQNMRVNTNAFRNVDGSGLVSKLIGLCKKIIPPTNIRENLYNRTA
# Sequence (P04958 458-1315 limits assumed, chain 2 of 2): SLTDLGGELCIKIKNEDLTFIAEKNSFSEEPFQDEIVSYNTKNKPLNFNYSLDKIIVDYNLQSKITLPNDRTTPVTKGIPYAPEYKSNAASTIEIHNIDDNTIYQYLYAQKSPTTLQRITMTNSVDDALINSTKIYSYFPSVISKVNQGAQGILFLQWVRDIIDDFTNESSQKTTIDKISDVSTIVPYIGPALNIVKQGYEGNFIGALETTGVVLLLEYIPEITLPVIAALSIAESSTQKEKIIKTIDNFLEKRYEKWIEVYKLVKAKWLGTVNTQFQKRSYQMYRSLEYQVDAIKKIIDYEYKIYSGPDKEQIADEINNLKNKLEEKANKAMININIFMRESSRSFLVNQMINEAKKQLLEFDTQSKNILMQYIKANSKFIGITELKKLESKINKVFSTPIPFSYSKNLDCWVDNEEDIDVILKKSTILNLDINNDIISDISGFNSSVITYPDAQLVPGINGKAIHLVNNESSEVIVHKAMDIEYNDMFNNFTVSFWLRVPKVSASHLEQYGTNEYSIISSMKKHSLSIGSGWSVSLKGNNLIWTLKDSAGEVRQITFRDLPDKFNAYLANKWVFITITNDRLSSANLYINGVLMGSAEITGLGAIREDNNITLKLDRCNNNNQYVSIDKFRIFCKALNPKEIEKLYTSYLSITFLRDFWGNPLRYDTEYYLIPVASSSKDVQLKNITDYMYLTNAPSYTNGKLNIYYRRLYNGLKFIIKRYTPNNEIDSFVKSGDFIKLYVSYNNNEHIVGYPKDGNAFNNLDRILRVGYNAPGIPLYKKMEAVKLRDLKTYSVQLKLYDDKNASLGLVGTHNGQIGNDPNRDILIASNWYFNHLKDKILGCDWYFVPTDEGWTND
# Assay Summary: ELISA, cAb-TT2 captured TeNT, E. coli supernatant; also: test concentration or dose not given here
Measured absorbance at 450 nm by item
Numeric answer only, unit A450 assumed.

Please review the entries below; each comes with its answer.
Ask: Tell me absorbance at 450 nm reported for SVT08 (VHH) VHH: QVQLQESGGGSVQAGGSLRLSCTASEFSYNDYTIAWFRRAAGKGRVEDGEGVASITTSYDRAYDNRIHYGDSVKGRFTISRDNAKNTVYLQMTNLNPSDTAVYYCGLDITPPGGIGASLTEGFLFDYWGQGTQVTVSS
Reply: 0.51

Ask: Tell me absorbance at 450 nm reported for SVT25 (VHH) VHH: QVQLQESGGGLVQAGGSLRLSCAASGRTISVYAMGWFRQAPGKQREFVAAISRSDNTYYTDSVKGRFTISRDNVKNTLYLQMNSLKPEETAVYYCAADPNLMYETKWKYRALEAWGQGTLVTVSS
Reply: 0.427

Ask: Tell me absorbance at 450 nm reported for SVT03 (VHH) VHH: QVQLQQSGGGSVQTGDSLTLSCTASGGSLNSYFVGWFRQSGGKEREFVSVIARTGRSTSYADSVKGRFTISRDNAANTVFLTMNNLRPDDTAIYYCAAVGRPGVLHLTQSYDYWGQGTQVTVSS
Reply: 0.534

Ask: Tell me absorbance at 450 nm reported for SVT31 (VHH) VHH: QVQLQESGGGSVQAGGSLTLSCAASEFSYNDYTIAWFRRAAGKGRVEDGEGVASITKSYDRAYDNRIHYADSVKGRFTISRDNAKNTVYLQMTSLNPSDTAVYYCALDITPPGGIGASLTEGFLFDYWGQGTQVTVSS
Reply: 1.09

Ask: Tell me absorbance at 450 nm reported for SVT13 (VHH) VHH: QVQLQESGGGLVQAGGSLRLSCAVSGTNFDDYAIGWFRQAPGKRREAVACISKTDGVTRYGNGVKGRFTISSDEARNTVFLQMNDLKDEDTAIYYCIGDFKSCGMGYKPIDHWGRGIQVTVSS
Reply: 0.165

---
Ask: Tell me absorbance at 450 nm reported for SVT29 (VHH) VHH: QVQLQESGGGLVQTGGSLTLSCRAYGRAFDNYHFGWFRQAPGKDREFVASISWKGGSTYRANFALGRFTSSVNRGESSVYLHMSGLTPEDTATYYCAAHDGGDWNYHTGMDYWGKGILVTVSS
Reply: 0.868

Ask: Tell me absorbance at 450 nm reported for SVT16 (VHH) VHH: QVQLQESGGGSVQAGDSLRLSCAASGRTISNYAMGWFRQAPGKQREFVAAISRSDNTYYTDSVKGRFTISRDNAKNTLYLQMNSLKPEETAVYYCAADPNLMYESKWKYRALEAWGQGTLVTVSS
Reply: 0.736

Ask: Tell me absorbance at 450 nm reported for SVT02 (VHH) VHH: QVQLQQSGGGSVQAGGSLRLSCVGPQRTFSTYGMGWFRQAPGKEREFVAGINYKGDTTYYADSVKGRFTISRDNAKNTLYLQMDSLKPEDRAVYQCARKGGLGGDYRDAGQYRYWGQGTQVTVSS
Reply: 0.511

Ask: Tell me absorbance at 450 nm reported for SVT20 (VHH) VHH: QVQLQQSGGGLVQAGGSLRLSCAASGRTMSSYAMGWFRQAPGKQREFVAAISRSGGNTYYTDSVKGRFTISRDNAKNTLYLQMNSLKPEETAVYYCAADPNLMYESKWKYRALEAWGQGTLVTVSS
Reply: 0.685

Ask: Tell me absorbance at 450 nm reported for SVT22 (VHH) VHH: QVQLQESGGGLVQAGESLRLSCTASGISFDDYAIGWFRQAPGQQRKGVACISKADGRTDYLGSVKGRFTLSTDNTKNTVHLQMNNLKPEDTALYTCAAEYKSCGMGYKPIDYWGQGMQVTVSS
Reply: 0.299
